Tested on: CCRF-CEM
Experiment: NCI tumour cell line growth inhibition, 48 h
Activity calls are given as the source filed them. Rule as the data show it: active = GI50 up to about 1.1 µM and inactive = higher. Where a SMILES comes first, the peptide text is derived from it. [ ]: non-standard residue; d: D form. Hiv = CC(C)[C@H](O)C(=O)O
Would you kindly list GI50 for each of these molecules?

Illustrative cases are given below, each with its answer.
[[record]]
molecule = "CC(C)[C@@H]1OC(=O)[C@@H](C)NC(=O)[C@@H]2CCCN2C1=O (cyclo([Hiv]-Pro-[dA]))"
test_readout = "GI50"
value_observed = "> 100 µM (inactive)"

[[record]]
molecule = "CSCC[C@@H](NC(=O)[C@H](CC(C)C)NC(=O)C(Cc1cnc[nH]1)NC(=O)CNC(=O)[C@@H](NC(=O)[C@H](C)NC(=O)[C@H](Cc1cn(C=O)c2ccccc12)NC(=O)[C@H](CCC(N)=O)NC(=O)[C@@H](N)CC(N)=O)C(C)C)C(N)=O (stereo partly drawn)"
test_readout = "GI50"
value_observed = "> 100 µM (inactive)"


With those in mind, consider the next molecule.
// field: GI50; key: O=C(O)Cc1ccc(N2N=C(c3ccccc3)CC2=O)cc1 ; value = > 100 µM (inactive)
